Biological target: pooled human IgG (human IgG1,2,3 and 4)
measurement.kind: Enzyme Activity Endpoint Assay (purified): Fab′2 (ng/µL)

| protein | result |
| --- | --- |
| PRT-368 (protein) MSQTEDSESLQRLRDIEDFQAEKKDQNVVYTKWLDGVDVKDHDFRKIVDGNIAYYATPLLNGRGWYDINKDFNRDNDKCAAAVAANMFHYWLDRNRDNVDRFLRQNPEKHGIIELPDGQLKLSDFLNTYESDDGYRDKSKLFDFISENFNGPVWTDKLLDNYINGYAYNYKYGRTIEDSTKNTSKINFFKEVFNEKILTNNHSIRNQNEFSVLLIEALYTGKAIGLSYGPAGLRHSLGHIISVWGADLDADGNVVAIYVTDSDDKKLTIGDERVGLKRYKISTDDEGRLRLTAYEETHNTGGQVRGLWTLDTGKQAWADYFDKTEQTGTDQAEQ | 0 |
| PRT-462 (protein) MVTSVWTKGVTPPTDFRKIVDGNIAYYHAPYKAGQGWYDITKAFDGGDDLLCGAATAGNMLHWWFDQNKDQIERYLKEHPEKQKINFNGEQMFDVKEAIDTKDSQTNSELFNYFKEKAFPYLSTKHLGVFPDHVLDMFINGYRLSLTNHGPTPVKEGSKDPRGGIFDAVFTRGDQSKLLTSRHDLKNKTLKEISDLIKQELTEGKALGLSHTYANVRINHVINLWGADFDSEGNLKAIYVTDSDSNASIGMKKYFVGVNSAGKVAISAKEIKEDNIGAQVLGLFTLSTGQDIWNQTNLEHHHHHH | 0 |
